TEST TARGET: human glucagon receptor (human, UniProt P47871 26-477)
Sequence (P47871 26-477): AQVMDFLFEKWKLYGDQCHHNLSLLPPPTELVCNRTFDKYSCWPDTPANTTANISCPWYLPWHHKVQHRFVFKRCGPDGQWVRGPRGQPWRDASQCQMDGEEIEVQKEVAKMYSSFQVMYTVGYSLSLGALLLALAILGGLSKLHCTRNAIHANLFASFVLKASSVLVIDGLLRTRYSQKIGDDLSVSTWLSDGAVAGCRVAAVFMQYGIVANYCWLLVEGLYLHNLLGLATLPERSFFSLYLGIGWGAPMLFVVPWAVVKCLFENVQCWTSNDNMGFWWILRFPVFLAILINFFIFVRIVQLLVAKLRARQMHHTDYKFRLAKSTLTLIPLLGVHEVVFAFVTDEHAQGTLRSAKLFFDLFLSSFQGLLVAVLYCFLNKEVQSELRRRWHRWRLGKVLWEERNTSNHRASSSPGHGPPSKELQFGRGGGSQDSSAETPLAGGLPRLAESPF
TEST DESCRIPTION: cell-based or functional assay
Positions of bridges follow the written chain, without caps; N, C: chain ends. Non-standard residues stand in square brackets, D forms with d. No end group written: not given here. Aib = CC(C)(N)C(=O)O
MEASURED PROPERTY: In vitro activity (relative activity to SEQ ID NO: 1, %), cAMP assay, from EC50
Answer with a number only, understood to be in %.

// query Give the measured In vitro activity (relative activity to SEQ ID NO: 1, %), cAMP assay, from EC50 for Y[Aib]QGTFTSDYSKYLDEKRCKEFVQWLMNT (lactam 16-20) [glucagon derivative of SEQ ID NO: 22]
// result 148

// query Give the measured In vitro activity (relative activity to SEQ ID NO: 1, %), cAMP assay, from EC50 for W[Aib]QGTFTSDYSKYLDECRAKDFVQWLMNT (lactam 16-20) [glucagon derivative of SEQ ID NO: 26]
// result 1

// query Give the measured In vitro activity (relative activity to SEQ ID NO: 1, %), cAMP assay, from EC50 for Y[Aib]QGTFCSDYSKYLDERRAKEFVQWLMNT (lactam 16-20) [glucagon derivative of SEQ ID NO: 38]
// result 167

// query Give the measured In vitro activity (relative activity to SEQ ID NO: 1, %), cAMP assay, from EC50 for Y[Aib]QGTFVSDCSKYLDERRAKDFVQWLMNT (lactam 16-20) [glucagon derivative of SEQ ID NO: 39]
// result 3.7

// query Give the measured In vitro activity (relative activity to SEQ ID NO: 1, %), cAMP assay, from EC50 for Y[Aib]QGTFVSDYSKYLDECRAKDFVQWLMNT (lactam 16-20) [glucagon derivative of SEQ ID NO: 27]
// result 93.6
